Experimental System: PepTSo2 (Shewanella oneidensis, UniProt Q8EHE6)
Assay Method Text: MST di-/tripeptide binding in solution to PepTSo2
Experimental Parameters: PepTSo2 in DDM, 20 °C
Residues, ends and D or L forms follow the SMILES beside them.
Experimental Readout: Kd (mM)
Write down the numeric answer in mM and omit the unit.

Query: // fetch Kd given entry C[C@H](N)C(=O)N[C@@H](Cc1ccccc1)C(=O)N[C@@H](C)C(=O)O [Ala-Phe-Ala] (H-Ala-Phe-Ala-OH; N-terminus and C-terminus assumed)
Response: 3.4

* * *

Experimental System: PepTSt
Experimental Parameters: PepTSt in DDM; MST, 20 °C
Residues, ends and D or L forms follow the SMILES beside them.
Experimental Readout: Kd (mM)
Write down the numeric answer in mM and omit the unit.

Query: Provide Kd, tested on PepTSt, for CC(C)C[C@H](N)C(=O)N[C@@H](C)C(=O)O [Leu-Ala] (H-Leu-Ala-OH; N-terminus and C-terminus assumed) .
Response: 16.6
